TARGET ENTITY: wild type human HSD17B13 (Homo sapiens (Human), UniProt Q7Z5P4)
Sequence (Q7Z5P4 20-300): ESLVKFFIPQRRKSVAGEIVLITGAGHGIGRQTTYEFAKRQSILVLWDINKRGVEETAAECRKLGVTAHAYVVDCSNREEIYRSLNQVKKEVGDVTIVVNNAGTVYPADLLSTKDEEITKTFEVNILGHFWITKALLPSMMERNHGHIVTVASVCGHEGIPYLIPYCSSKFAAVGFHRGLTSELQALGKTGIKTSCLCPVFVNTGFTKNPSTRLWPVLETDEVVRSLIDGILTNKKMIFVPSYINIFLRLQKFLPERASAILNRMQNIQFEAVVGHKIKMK
ASSAY INFO: HEK_Beta-Est LCMS_IC50_Tekcel, whole-cell HEK-HSD17B13 inhibition assay, estrone production by LCMS
TEST SETTINGS: geometric mean, HEK cells stably expressing wild type human HSD17B13, 25 μM FAC beta-estradiol, read-out: HEK_Beta-Est LCMS_IC50—Tekcel GMean IC50
Counter-ions that a name gives are not always drawn.
// returns condition not met unless IC50 is strictly below 200 nM, in which case condition met

Consider the worked cases shown below.
# COMPOUND, TARGET ENTITY, CLASS NAME
rows = [
    ("O=C(NC[C@H]1CC[C@H](n2cc3ccc(-c4cn5ccccc5n4)cc3n2)CC1)c1cc(F)c(O)c(F)c1 [Example 103, trifluoroacetate salt]", "wild type human HSD17B13 (Homo sapiens (Human), UniProt Q7Z5P4)", "condition not met"),
    ("O=C(NC[C@H]1CC[C@H](n2cc(-c3ccc4nccnc4c3)nn2)CC1)c1cc(F)c(O)c(F)c1", "wild type human HSD17B13 (Homo sapiens (Human), UniProt Q7Z5P4)", "condition not met"),
    ("Cn1cc(-c2ccc3cn([C@H]4CC[C@H](CNC(=O)c5cc(F)c(O)c(F)c5)CC4)nc3c2)ccc1=O", "wild type human HSD17B13 (Homo sapiens (Human), UniProt Q7Z5P4)", "condition not met"),
    ("COc1cccc(-c2ccc3cn([C@H]4CC[C@H](CNC(=O)c5cc(F)c(O)c(F)c5)CC4)nc3c2)n1 [Example 116, trifluoroacetate salt]", "wild type human HSD17B13 (Homo sapiens (Human), UniProt Q7Z5P4)", "condition met"),
    ("O=C(NC[C@]12CC[C@](c3nc(-c4cnc(C(F)(F)F)cn4)no3)(CC1)CC2)c1ccc(O)c(F)c1F", "wild type human HSD17B13 (Homo sapiens (Human), UniProt Q7Z5P4)", "condition not met"),
    ("Cc1c(-c2ccc3cn([C@H]4CC[C@H](CNC(=O)c5cc(F)c(O)c(F)c5)CC4)nc3c2)cnn1C", "wild type human HSD17B13 (Homo sapiens (Human), UniProt Q7Z5P4)", "condition not met"),
]

Please turn your attention to the following entry.
# input Dear colleague, could you confirm whether IC50 of O=C(NC[C@H]1CC[C@H](n2cc3ccc(-c4cc(C5CC5)ncn4)cc3n2)CC1)c1cc(F)c(O)c(F)c1 falls below 200 nM? Thanks.
# output condition met
